The origin of these recorded values is the RNAGym collection of RNA variant scans (doi:10.7554/elife.90254).

B1: LINE1-full (parent)
chain: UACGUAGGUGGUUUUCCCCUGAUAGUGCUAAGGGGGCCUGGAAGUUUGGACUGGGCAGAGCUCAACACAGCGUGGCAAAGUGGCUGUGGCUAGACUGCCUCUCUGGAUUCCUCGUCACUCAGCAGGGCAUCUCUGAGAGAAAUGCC

- Variants of: B1
- assay_method_text: self-cleavage, relative activity (ratio to wild type); higher = more cleavage; in vitro, sequencing; the parent is a self-cleaving ribozyme
For each record, write down the corresponding self-cleavage.
Numbers only.

>>> df
   mutant_id  property_measured  test_value
0  A77C A78G      self-cleavage        1.63

Here are 5 variants. What values of self-cleavage were reported for them?
1. G33A G55A
2. U46A A69G
3. A42U A107G
4. A64U U119A
5. C37G A124G

(A)
1: 0.73; 2: 0.36; 3: 1.25; 4: 0.34; 5: 1.61

Provide self-cleavage values for the following items, in order.
1. U9G A67G
2. U29C A64C
3. G35A A142G
4. U1A A2G
5. U45A U130C
6. A31G A65G

(A)
1: 0.37; 2: 0.61; 3: 1.14; 4: 1.2; 5: 1.86; 6: 0

Give self-cleavage for each listed item.
1. G122A A140U
2. U13C U85A
3. U15C A94U
4. G7U G70A
5. A67C A136G

(A)
1.47
0.13
0.67
0.2
0.12

Lab note: each variant below needs its self-cleavage filled in.
1. A67G G126A
2. U5A U15C
3. G105U
4. C63A A77G
5. U15C A117U

(A)
1: 0.58; 2: 0.94; 3: 1.37; 4: 0.04; 5: 1.58
